Below, each entry is listed alongside its reported IC50.
Molecular target: ALK2 (Mus musculus)
Construct: endogenous in cells
Sequence (P37172 21-509): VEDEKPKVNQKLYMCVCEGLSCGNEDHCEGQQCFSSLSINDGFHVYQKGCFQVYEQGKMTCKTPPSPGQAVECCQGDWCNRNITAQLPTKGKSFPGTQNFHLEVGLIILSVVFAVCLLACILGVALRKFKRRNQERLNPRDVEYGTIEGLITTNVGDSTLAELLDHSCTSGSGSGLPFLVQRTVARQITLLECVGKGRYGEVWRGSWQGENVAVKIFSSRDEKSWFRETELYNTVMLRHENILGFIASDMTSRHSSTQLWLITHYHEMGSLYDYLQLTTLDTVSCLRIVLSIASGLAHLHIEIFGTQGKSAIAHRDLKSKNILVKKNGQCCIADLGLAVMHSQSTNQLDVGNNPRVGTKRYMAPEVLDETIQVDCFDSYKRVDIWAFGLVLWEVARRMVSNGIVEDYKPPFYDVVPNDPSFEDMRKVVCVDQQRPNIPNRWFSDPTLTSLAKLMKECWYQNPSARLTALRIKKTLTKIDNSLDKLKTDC
Assay: Luciferase reporter gene assay for ALK2 activity (C2C12 BRE-Luc SMAD1/5/8 reporter, BMP6 agonist)
Conditions: BMP6 50 ng/mL
Supply the numeric figure in nM, leaving out any unit text.

given_smiles=COc1cc2c(-c3cnn4cc(N5CCN(C6CN(C)C6)CC5)cnc34)ccnc2cc1F observed_measurement=23
given_smiles=CN1CCN(C2CCN(c3cnc4c(-c5ccnc6cc(F)c(N)cc56)cnn4c3)CC2)CC1 observed_measurement=18
given_smiles=CN1CCN(C2CCN(c3cnc4c(-c5ccc(C(N)=O)c6ccccc56)cnn4c3)CC2)CC1 observed_measurement=36
given_smiles=COc1cc2c(-c3cnn4cc(N5CCC6(CCN(C)CC6)CC5)cnc34)ccnc2cc1F observed_measurement=33

Challenge: Provide IC50, system ALK2 (Mus musculus), entry Cc1cc(-c2cnn3cc(N4CCC(N5CCCN(C)CC5)CC4)cnc23)c2ccccc2n1
Response given: 90

Challenge: Provide IC50, system ALK2 (Mus musculus), entry Cc1cc(-c2cnn3cc(N4CC5(CC(N(C)C)C5)C4)cnc23)c2ccccc2n1
Response given: 9

Challenge: Provide IC50, system ALK2 (Mus musculus), entry COc1ccc2nccc(-c3cnn4cc(N5CCC(N6CCCN(C)CC6)CC5)cnc34)c2c1
Response given: 104
